Tested on: YSK1
Construct: gene STK25
Settings: concentration: 1 μM, replicates: in singlicate; n = 1;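 note: KINOMEscan kinase panel screen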
Parameter %Inh: see the listing below.

[
  {
    "SMILES REPRESENTATION": "Cl.NS(=O)(=O)c1cccc(Nc2cc(-c3ccc(F)cc3)n[nH]2)c1",
    "READING UNIT": "%",
    "%Inh": 8
  },
  {
    "SMILES REPRESENTATION": "CCC(=O)c1c(-c2ccccc2)c2cc(Cl)ccc2c(=O)n1Cc1cc(C(=O)NC2CC2)n(C)n1",
    "READING UNIT": "%",
    "%Inh": 4
  },
  {
    "SMILES REPRESENTATION": "CCC(=O)c1c(-c2ccccc2)c2cc(Cl)ccc2c(=O)n1Cc1cc(S(C)(=O)=O)n(CCC(C)(C)O)n1",
    "READING UNIT": "%",
    "%Inh": 0
  },
  {
    "SMILES REPRESENTATION": "Fc1cccc(CSc2nnc(-c3ccc4c(c3)CCO4)o2)c1",
    "READING UNIT": "%",
    "%Inh": 0
  },
  {
    "SMILES REPRESENTATION": "Nc1ncnc2c1ncn2-c1cccc2ccccc12",
    "READING UNIT": "%",
    "%Inh": 12
  },
  {
    "SMILES REPRESENTATION": "Cc1ccc(-c2ccc3c(ccc4sc5c(c43)NC[C@@H](C)N=C5N(C)C)n2)cn1",
    "READING UNIT": "%",
    "%Inh": 0
  },
  {
    "SMILES REPRESENTATION": "Nc1n[nH]c2ncc(-c3ccccc3)cc12",
    "READING UNIT": "%",
    "%Inh": 8
  },
  {
    "SMILES REPRESENTATION": "COc1cc2ncn(-c3cc(OCCCc4ccccc4)c(C(N)=O)s3)c2cc1OC",
    "READING UNIT": "%",
    "%Inh": 0
  },
  {
    "SMILES REPRESENTATION": "Nc1ncnc2c1ncn2-c1ccc(Cl)cc1",
    "READING UNIT": "%",
    "%Inh": 0
  }
]

----------
System: DYRK2
Settings: concentration: 1 μM, replicates: in singlicate; n = 1
Tag: 1 if measured %Inh is not below 8%, 0 if it is.

[
  {
    "COMPOUND": "COC(=O)c1c(-c2ccccc2)c2cc(Br)ccc2c(=O)n1Cc1ccc(S(C)(=O)=O)cc1",
    "MEASURED TARGET": "DYRK2",
    "GROUP": 1
  },
  {
    "COMPOUND": "COc1cc(Nc2nccc(N3CCC(NC(=O)C(C)c4ccc(Cl)cc4)C3)n2)cc(OC)c1OC (stereo not shown) [GSK1379757]",
    "MEASURED TARGET": "DYRK2",
    "GROUP": 0
  },
  {
    "COMPOUND": "OCCCNc1nccc(-c2c(-c3cccc(C(F)(F)F)c3)nn3cc(C(F)(F)F)ccc23)n1 [GW630813]",
    "MEASURED TARGET": "DYRK2",
    "GROUP": 0
  },
  {
    "COMPOUND": "Nc1ncnc2c1ncn2-c1cccc(F)c1 [SKF-97560]",
    "MEASURED TARGET": "DYRK2",
    "GROUP": 1
  },
  {
    "COMPOUND": "COc1cccc(-n2cnc3c(N)ncnc32)c1 [SKF-97416]",
    "MEASURED TARGET": "DYRK2",
    "GROUP": 1
  },
  {
    "COMPOUND": "Cc1nc(N(C)[C@H]2CN(C(=O)CC#N)CC[C@H]2C)c2cc[nH]c2n1",
    "MEASURED TARGET": "DYRK2",
    "GROUP": 0
  },
  {
    "COMPOUND": "CCC(=O)c1c(-c2ccccc2)c2cc(Cl)ccc2c(=O)n1Cc1cc(S(C)(=O)=O)n(CC(F)F)n1",
    "MEASURED TARGET": "DYRK2",
    "GROUP": 1
  },
  {
    "COMPOUND": "CCC(=O)c1c(-c2ccccc2)c2cc(Cl)ccc2c(=O)n1Cc1cc(S(C)(=O)=O)n(CCC(C)(C)O)n1",
    "MEASURED TARGET": "DYRK2",
    "GROUP": 1
  },
  {
    "COMPOUND": "O=C(Nc1n[nH]c2cc(-c3ccccc3F)ccc12)C1CC1 [SB-733371]",
    "MEASURED TARGET": "DYRK2",
    "GROUP": 0
  },
  {
    "COMPOUND": "CCn1c(-c2ccoc2)nc2cnccc21 [SB-733887]",
    "MEASURED TARGET": "DYRK2",
    "GROUP": 0
  },
  {
    "COMPOUND": "CCc1ccc(-c2ccc3c(c2)-c2nn(C)cc2S(=O)(=O)N3C)cc1",
    "MEASURED TARGET": "DYRK2",
    "GROUP": 0
  },
  {
    "COMPOUND": "COc1cc2ncn(-c3cc(OCCCc4ccccc4)c(C(N)=O)s3)c2cc1OC [GSK205189]",
    "MEASURED TARGET": "DYRK2",
    "GROUP": 0
  },
  {
    "COMPOUND": "Cl.c1ccc(Cn2cnc3cc(Nc4ncnc5ccccc45)ccc32)cc1 [GW272142]",
    "MEASURED TARGET": "DYRK2",
    "GROUP": 1
  },
  {
    "COMPOUND": "O=C1NC(=O)C(c2ccccc2)=C1Nc1cccc(O)c1 [SB-390534]",
    "MEASURED TARGET": "DYRK2",
    "GROUP": 0
  },
  {
    "COMPOUND": "COc1cc2ncn(-c3cc(OCc4ccncc4Br)c(C(N)=O)s3)c2cc1OC [GW854278]",
    "MEASURED TARGET": "DYRK2",
    "GROUP": 1
  },
  {
    "COMPOUND": "CCn1c(-c2nonc2N)nc2ccccc21 [SB-693162/GW549034]",
    "MEASURED TARGET": "DYRK2",
    "GROUP": 1
  },
  {
    "COMPOUND": "COc1ccc(CNC(=O)NC2CCN(c3ccnc(Nc4ccc(F)cc4)n3)C2)cc1 (stereo not shown) [GSK1379706]",
    "MEASURED TARGET": "DYRK2",
    "GROUP": 0
  }
]

Every entry's value here was drawn from paper PMC5540273.
